These entries and their values trace back to patent US20240327408A1.

# study.system: hClpP (Homo sapiens)
# Sequence (Q16740 57-277): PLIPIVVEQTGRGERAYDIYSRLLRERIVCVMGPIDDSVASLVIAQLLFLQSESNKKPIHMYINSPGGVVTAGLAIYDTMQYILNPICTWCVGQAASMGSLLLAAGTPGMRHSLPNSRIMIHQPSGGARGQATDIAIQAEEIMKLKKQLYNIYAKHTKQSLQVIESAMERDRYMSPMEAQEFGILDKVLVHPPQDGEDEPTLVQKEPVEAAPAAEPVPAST
# assay.summary: activating ClpP hydrolysis of FITC-casein (fluorescence kinetic detection)
# condition.summary: hClpP 1 μM, FITC-Casein 4 μM, 37° C.
pEC50: −log10 of the molar value.
quantity.name: pEC50

Below: 5 compounds and their reported pEC50.
compound: CCc1ccc(Cn2c(=O)c3c(n4ccnc24)CCN(Cc2cccc(F)c2)C3)cc1 [Compound I-138]
study.system: hClpP (Homo sapiens)
quantity.name: pEC50
val: > 6.00
//
compound: O=c1c2c(n3ccnc3n1Cc1ccccc1)CCN(Cc1cccc(F)c1)C2 [Compound I-108]
study.system: hClpP (Homo sapiens)
quantity.name: pEC50
val: > 6.00
//
compound: Cc1ccccc1CN1CCc2c(c(=O)n(Cc3ccccc3)c3ncccc23)C1 [Compound I-9]
study.system: hClpP (Homo sapiens)
quantity.name: pEC50
val: 5.00 to 6.00
//
compound: O=c1c2c(n3ccnc3n1Cc1ccc(C(F)(F)F)cc1)CCN(Cc1cccc(F)c1)C2 [Compound I-128]
study.system: hClpP (Homo sapiens)
quantity.name: pEC50
val: > 6.00
//
compound: O=c1c2c(c3cccnc3n1Cc1ccccc1)CCN(Cc1ccccc1)C2 [Compound I-5]
study.system: hClpP (Homo sapiens)
quantity.name: pEC50
val: 5.00 to 6.00

Task: Recall and state the measured pEC50 for Cc1noc(C)c1CN1CCc2c(c(=O)n(Cc3ccccc3)c3ncccc23)C1 [Compound I-34] .
Result: 4.00 to 5.00

Task: Provide measured pEC50 value, entry: O=c1c2c(c3cccnc3n1Cc1cccnc1)CCN(Cc1ccccc1)C2 [Compound I-62]
Result: 4.00 to 5.00

Task: Report measured pEC50; entry is O=c1c2c(c3scnc3n1Cc1ccc(C(F)(F)F)cc1)CCN(Cc1ccccc1)C2 [Compound I-105]
Result: 5.00 to 6.00

Task: Provide only the value of recorded pEC50 for Cc1ccc(Cn2c(=O)c3c(c4cccnc42)CCN(Cc2cccc(F)c2)C3)cc1 [Compound I-93]
Result: > 6.00

Task: Item COc1ccc(Cn2c(=O)c3c(n4ccnc24)CCN(Cc2ccccc2)C3)cc1 [Compound I-142] : provide pEC50
Result: > 6.00

Task: Check the records and state pEC50 for O=c1c2c(c3cncnc3n1Cc1ccc(C(F)(F)F)cc1)CCN(Cc1ccccc1)C2 [Compound I-81]
Result: > 6.00

Task: Read off the recorded pEC50 for O=c1c2c(n3ccnc3n1Cc1ccc(F)cc1)CCN(Cc1cccc(Cl)c1)C2 [Compound I-114]
Result: > 6.00

Task: Tell me measured pEC50 for O=c1c2c(c3cccnc3n1Cc1ccccc1)CCN(Cc1cccc(Br)c1)C2 [Compound I-14] please.
Result: > 6.00
